Origin of values: patent US20240270821A1

Assignment: determine reported pEC50 for the given substances.
# systemTested: hGcgR (Homo sapiens, UniProt P47871)
# Sequence (P47871 26-477): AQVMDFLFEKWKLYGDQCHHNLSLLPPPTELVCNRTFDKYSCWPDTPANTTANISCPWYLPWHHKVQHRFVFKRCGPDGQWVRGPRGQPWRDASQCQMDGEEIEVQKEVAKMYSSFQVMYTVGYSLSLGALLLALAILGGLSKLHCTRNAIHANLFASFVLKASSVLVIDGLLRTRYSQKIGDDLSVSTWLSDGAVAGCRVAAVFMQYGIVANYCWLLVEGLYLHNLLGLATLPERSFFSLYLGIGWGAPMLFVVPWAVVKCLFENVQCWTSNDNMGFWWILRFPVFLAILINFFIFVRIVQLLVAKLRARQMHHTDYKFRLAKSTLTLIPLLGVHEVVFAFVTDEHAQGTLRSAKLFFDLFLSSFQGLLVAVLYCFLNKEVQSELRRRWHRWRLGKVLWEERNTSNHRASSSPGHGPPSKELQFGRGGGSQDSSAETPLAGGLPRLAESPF
# methodSummary: Functional cAMP activation in the presence of 0.1% casein (no HSA);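 note: intracellular cAMP rise after 30 min at 37 °C, read by HTRF against a cAMP standard curve, scaled from buffer only (0%) to maximal control ligand response (100%)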
# Assay type: cell-based
# runConditions: read-out: Relative cAMP EC50, hGcgR
Starred links: 1 amine or outer side, 2 acyl side, 3 side chain; linkers in the order of their positions; H or OH if unused. Non-standard residues stand in square brackets, D forms with d. Groups on a side chain read outwards from the residue. No end group written: not given here. *: point of attachment. C18 diacid = O=C(O)CCCCCCCCCCCCCCCCC(=O)*; αMePhe(2-F) = C[C@](N)(Cc1ccccc1F)C(=O)O; γGlu = O=C(O)[C@H](CCC(=O)[*:2])N[*:1]; αMe4Pal = C[C@](N)(Cc1ccncc1)C(=O)O; αMeY = C[C@](N)(Cc1ccc(O)cc1)C(=O)O; 4Pal = N[C@@H](Cc1ccncc1)C(=O)O; αMeL = CC(C)C[C@](C)(N)C(=O)O; αMeS = C[C@](N)(CO)C(=O)O; Orn = NCCC[C@H](N)C(=O)O; AEEA = NCCOCCOCC(=O)O; Aib = CC(C)(N)C(=O)O
pEC50 field: float, defined as -log10 of concentration (mol/L).

The substance H-Y[Aib]QGTFTSDFS[Orn][αMeL]LDKK([AEEA-γGlu-C18 diacid])AQ[Aib]AFIE[4Pal]LLEGGPSSGAPPPGGS-NH2 [Example 496] showed pEC50 equal to 8.08

The substance H-Y[Aib]QGT[αMePhe(2-F)]TSD[4Pal]SILLD[Orn]K([γGlu-γGlu-C18 diacid])AQ[Aib]AFIEYLEEGGPSSGAPPPSGTGE-NH2 [Example 514] showed pEC50 equal to 8.18

The substance Y[Aib]QGT[αMePhe(2-F)]TSD[4Pal]SI[αMeL]LD[Orn]K([AEEA-γGlu-C18 diacid])AQ[αMe4Pal][Orn]FI[dE][αMeY]LIEGGPSSGAPPPEGGGE-NH2 [Example 758] showed pEC50 equal to 8.40

The substance H-Y[Aib]QGT[αMePhe(2-F)]TSD[4Pal][αMeS]I[αMeL]LD[Orn]K([AEEA-γGlu-C18 diacid])AA[Aib]EFI[dE][αMeY]LIEGGPSSGAPPPSG[dE]-NH2 [Example 721] showed pEC50 equal to 8.75

The substance Y[Aib]QGT[αMePhe(2-F)]TSD[4Pal][αMeS]I[αMeL]LD[Orn]K([γGlu-γGlu-C18 diacid])AQ[Aib][Orn]FI[dE][αMeY]LQEGGPSSGEPPPEGAEE-NH2 [Example 587] showed pEC50 equal to 8.27

====

# systemTested: hGcgR (Homo sapiens)
# methodSummary: Functional cAMP activation in the presence of 0.1% casein (no HSA)
# Type: cell-based
# runConditions: in the presence of 0.1% casein (no HSA); geometric mean; read-out: Relative cAMP EC50, hGcgR
Starred links: 1 amine or outer side, 2 acyl side, 3 side chain; linkers in the order of their positions; H or OH if unused. Non-standard residues stand in square brackets, D forms with d. Groups on a side chain read outwards from the residue. No end group written: not given here. *: point of attachment. C18 diacid = O=C(O)CCCCCCCCCCCCCCCCC(=O)*; γGlu = O=C(O)[C@H](CCC(=O)[*:2])N[*:1]; αMe4Pal = C[C@](N)(Cc1ccncc1)C(=O)O; αMeY = C[C@](N)(Cc1ccc(O)cc1)C(=O)O; 4Pal = N[C@@H](Cc1ccncc1)C(=O)O; αMeL = CC(C)C[C@](C)(N)C(=O)O; αMeS = C[C@](N)(CO)C(=O)O; Orn = NCCC[C@H](N)C(=O)O; Aib = CC(C)(N)C(=O)O
propertyLabel: EC50 (nM)
Response body: numeric value in nM, unit text excluded.

EC50 value, target or system hGcgR (Homo sapiens), for H-Y[Aib]QGTFTSD[4Pal]S[Orn][αMeL]LDKK([γGlu-γGlu-C18 diacid])AQ[Aib]AFIE[αMeY]LIEGGPSSGAPPPSGS-NH2 [Example 941] : 11.7

EC50 value, target or system hGcgR (Homo sapiens), for H-Y[Aib]QGTFTSD[4Pal][αMeS]Q[αMeL]LD[Orn]K([dE-γGlu-C18 diacid])AQ[αMe4Pal]QFIE[αMeY]LIA[Aib]GPSSGAPPPSGGGE-NH2 [Example 1185] : 1.64

EC50 value, target or system hGcgR (Homo sapiens), for Y[Aib]QGTFTSD[4Pal]S[Orn][αMeL]LDKK([γGlu-γGlu-C18 diacid])AQ[Aib]AFIE[αMeY]LLEGGPSSGAPPPSGSEE-NH2 [Example 944] : 6.16
